system: UACC-62 melanoma; experiment: NCI tumour cell line growth inhibition, 48 h
# key: entry, value: TGI

Example results:
Compound structure string: C/C(=N\Nc1nc2ccccc2s1)c1cc2ccccc2cn1
System under test: UACC-62 melanoma
Meas value: 21.1 µM

Compound structure string: CCOc1ccc2c(c1)c(CC(=O)O)cn2C
System under test: UACC-62 melanoma
Meas value: > 100 µM

Next item in the queue.
# compound `CCCCNc1ccc(Nc2ccccc2)cc1` ; its TGI = > 100 µM

---

system: SN12C renal; assay: NCI tumour cell line growth inhibition, 48 h
Assay metric: TGI

Example results:
Compound: C/C(N=NS(=O)(=O)c1ccc([N+](=O)[O-])cc1)=C1\C=CC=CN1O
System under test: SN12C renal
TGI: > 100 µM

Compound: NC(CSSCC(N)C(=O)O)C(=O)O (configuration not stated)
System under test: SN12C renal
TGI: > 100 µM

Compound: O=C1OC(=O)C2C3C=CC(C12)C1C2C=CC2C31 (configuration not stated)
System under test: SN12C renal
TGI: > 100 µM

Compound: [N-]=[N+]=CC(=O)OCCCCl
System under test: SN12C renal
TGI: > 100 µM

Compound: O=C(NCCCl)SCCO
System under test: SN12C renal
TGI: > 100 µM

Compound: Cc1ccc(NC(=O)CCc2n[nH]c(=S)o2)cc1
System under test: SN12C renal
TGI: > 100 µM

# compound `CCOC(=O)Nc1cc2ccccc2c(N=Nc2ccccc2)c1O` ; its TGI = > 100 µM

# compound `CC(C)=CC[C@]12CCN(C)[C@H]1N(S(=O)(=O)c1ccccc1)c1ccccc12` ; its TGI = > 100 µM

# compound `O=C(O)/C=C/c1c[nH]c(=O)[nH]c1=O` ; its TGI = > 500 µM

# compound Cc1ccc(C2NC(=O)c3ccccc3N2)c(C)c1 (configuration not stated) ; its TGI = > 86.5 µM

# compound C=C=CC(NC(=O)c1ccccc1)(C(=O)O)C(F)(F)F (configuration not stated) ; its TGI = > 100 µM

# compound CC1(C)OC2OC(C(COS(=O)(=O)C(F)(F)F)N=[N+]=[N-])C(OC(=O)c3ccccc3)C2O1 (configuration not stated) ; its TGI = > 100 µM
